target: D(2) dopamine receptor (Rattus norvegicus, UniProt P61169); test: Displacement of [3H]haloperidol from Dopamine receptor D2 in rat brain
Sequence (P61169 whole entry): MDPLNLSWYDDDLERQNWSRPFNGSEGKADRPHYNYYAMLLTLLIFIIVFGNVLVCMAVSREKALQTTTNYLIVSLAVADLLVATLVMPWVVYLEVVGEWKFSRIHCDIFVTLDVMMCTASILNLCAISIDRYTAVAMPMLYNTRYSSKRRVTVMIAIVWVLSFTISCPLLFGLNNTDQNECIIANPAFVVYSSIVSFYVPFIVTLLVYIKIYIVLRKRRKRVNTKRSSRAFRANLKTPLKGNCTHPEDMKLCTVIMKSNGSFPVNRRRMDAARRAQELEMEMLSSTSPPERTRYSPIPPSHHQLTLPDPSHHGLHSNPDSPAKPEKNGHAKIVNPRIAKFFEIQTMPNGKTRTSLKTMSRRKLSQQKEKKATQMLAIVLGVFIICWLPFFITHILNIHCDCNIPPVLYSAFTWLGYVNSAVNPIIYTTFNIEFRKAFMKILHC
measurement_label: IC50

Fill in: IC50 of CCC1CN2C(C)=Nc3c(C)nn(C)c3C2=N1 (stereo unspecified) is ___
> 10 µM

###

system: Mus musculus; assay: Inhibition of locomotor activity in mouse after intraperitoneal administration; type: functional; conditions: Mus musculus, ip; read-out: ED50
Threshold check on ED50: strictly below 30 mg/kg is 1; on or above 30 mg/kg is 0.

Solved entries:
Cc1cn2c(C)nc3c(C)nn(C)c3c2n1 = 0
Cc1nn(C)c2c1N=C(Cc1ccccc1)N1CC(C)N=C21 (configuration not stated) = 1
CCc1nc2c(C)nn(C)c2c2nc(C)cn12 = 0
Cc1nn(C)c2c1N=C(c1ccccc1)N1CC(C)N=C21 (configuration not stated) = 0
CC[C@@H]1CN2C(C)=Nc3c(C)nn(C)c3C2=N1 = 0
Cc1cn2c(CC(=O)O)nc3c(C)nn(C)c3c2n1 = 0
CSc1ccc2c(c1)N(CCC1CCCCN1C)c1ccccc1S2 (configuration not stated) [THIORIDAZINE] = 1
CCn1nc(C)c2c1C1=NC(C)CN1C(C)=N2 (configuration not stated) = 1

Please check: ED50 for `CCc1nc2c(C)nn(C)c2c2nccn12` , strictly under 30 mg/kg or not?
0

Consider Cc1nn(C)c2c1N=C(C1CC1)N1CC(C)N=C21 (configuration not stated) . Does its ED50 lie strictly below 30 mg/kg?
0

Quick check: does CCC1=Nc2c(C)nn(C)c2C2=NC(C)CN12 (configuration not stated) have ED50 under 30 mg/kg?
1

In plain terms, does CC1=Nc2c(C)nn(C)c2C2=NC(C)CN12 (configuration not stated) come in under 30 mg/kg for ED50?
0

###

molecular target: D(1A) dopamine receptor (Rattus norvegicus); assay: Displacement of [3H]cis-flupenthixol from Dopamine receptor D1 in rat brain
Sequence (P18901 whole entry): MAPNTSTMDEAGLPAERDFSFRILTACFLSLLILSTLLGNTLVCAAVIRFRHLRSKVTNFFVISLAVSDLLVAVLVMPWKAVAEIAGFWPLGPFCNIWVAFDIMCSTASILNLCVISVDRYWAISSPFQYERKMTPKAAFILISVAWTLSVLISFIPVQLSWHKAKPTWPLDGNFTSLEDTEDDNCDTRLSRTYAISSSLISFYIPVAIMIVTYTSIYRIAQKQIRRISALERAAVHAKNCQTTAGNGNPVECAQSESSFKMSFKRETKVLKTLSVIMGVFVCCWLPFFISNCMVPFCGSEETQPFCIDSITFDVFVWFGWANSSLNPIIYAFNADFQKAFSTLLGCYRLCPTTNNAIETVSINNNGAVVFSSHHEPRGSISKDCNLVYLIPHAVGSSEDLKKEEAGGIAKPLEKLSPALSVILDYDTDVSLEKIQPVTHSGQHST
measurement_label: IC50

Give its IC50 value. Item: CCC1CN2C(C)=Nc3c(C)nn(C)c3C2=N1 (stereo unspecified)
> 10 µM

###

target: Beta-1 adrenergic receptor (Rattus norvegicus, UniProt P18090)
Sequence (P18090 whole entry): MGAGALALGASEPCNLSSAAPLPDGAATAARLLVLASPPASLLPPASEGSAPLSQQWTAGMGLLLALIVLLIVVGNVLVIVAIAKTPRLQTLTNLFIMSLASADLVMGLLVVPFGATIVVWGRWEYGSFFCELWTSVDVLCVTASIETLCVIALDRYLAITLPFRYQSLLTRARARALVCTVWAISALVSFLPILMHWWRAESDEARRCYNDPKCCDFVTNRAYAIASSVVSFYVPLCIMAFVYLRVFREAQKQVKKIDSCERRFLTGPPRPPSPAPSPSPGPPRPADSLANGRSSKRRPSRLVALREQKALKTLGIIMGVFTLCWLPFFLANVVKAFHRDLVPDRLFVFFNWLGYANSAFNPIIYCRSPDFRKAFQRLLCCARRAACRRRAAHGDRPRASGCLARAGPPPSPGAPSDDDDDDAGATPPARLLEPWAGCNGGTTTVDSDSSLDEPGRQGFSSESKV
pIC50: −log10 of the molar value.
measurement_label: pIC50

// fetch Beta-1 adrenergic receptor (Rattus norvegicus, UniProt P18090) pIC50 for CSc1ccc2c(c1)N(CCC1CCCCN1C)c1ccccc1S2 (stereo unspecified)
< 5.00

###

experiment: Displacement of [3H]flunitrazepam from GABA-A benzodiazepine receptor of rat brain
pIC50: −log10 of the molar value.
measurement_label: pIC50

Endpoint output: pIC50 of CCC1CN2C(C)=Nc3c(C)nn(C)c3C2=N1 (stereo unspecified) . Value?
< 6.00

###

molecular target: Adenosine receptor A1 (Rattus norvegicus, UniProt P25099); experiment: Displacement of [3H]CHA (N6-Cyclohexyl adenosine) from adenosine A1 receptor in rat brain; assay type: tissue-based
Sequence (P25099 whole entry): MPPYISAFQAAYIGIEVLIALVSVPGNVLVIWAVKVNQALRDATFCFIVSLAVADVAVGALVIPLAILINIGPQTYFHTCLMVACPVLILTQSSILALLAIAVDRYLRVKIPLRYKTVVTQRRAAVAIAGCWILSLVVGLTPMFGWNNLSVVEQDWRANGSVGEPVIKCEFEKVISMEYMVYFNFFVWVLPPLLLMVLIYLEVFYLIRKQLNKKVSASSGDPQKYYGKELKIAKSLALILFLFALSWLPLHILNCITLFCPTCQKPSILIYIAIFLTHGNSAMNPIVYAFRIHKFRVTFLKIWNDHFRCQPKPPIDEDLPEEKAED
pIC50: −log10 of the molar value.
measurement_label: pIC50

I am curious: what pIC50 value has been reported for CCC1CN2C(C)=Nc3c(C)nn(C)c3C2=N1 (stereo unspecified) ?
< 5.00

###

target: Adenosine receptor A1 (Rattus norvegicus, UniProt P25099); assay: Displacement of [3H]-CHA (N6-Cyclohexyl adenosine) from adenosine A1 receptor in rat brain; assay type: tissue-based
pIC50: −log10 of the molar value.
measurement_label: pIC50

// pIC50 lookup, key: CSc1ccc2c(c1)N(CCC1CCCCN1C)c1ccccc1S2 (stereo unspecified)
< 5.00
